Molecular target: T1, EsCas13d, nuclease-dead (Eubacterium siraeum, UniProt B0MS50, R295A;H300A;R849A;H854A)
T1 sequence: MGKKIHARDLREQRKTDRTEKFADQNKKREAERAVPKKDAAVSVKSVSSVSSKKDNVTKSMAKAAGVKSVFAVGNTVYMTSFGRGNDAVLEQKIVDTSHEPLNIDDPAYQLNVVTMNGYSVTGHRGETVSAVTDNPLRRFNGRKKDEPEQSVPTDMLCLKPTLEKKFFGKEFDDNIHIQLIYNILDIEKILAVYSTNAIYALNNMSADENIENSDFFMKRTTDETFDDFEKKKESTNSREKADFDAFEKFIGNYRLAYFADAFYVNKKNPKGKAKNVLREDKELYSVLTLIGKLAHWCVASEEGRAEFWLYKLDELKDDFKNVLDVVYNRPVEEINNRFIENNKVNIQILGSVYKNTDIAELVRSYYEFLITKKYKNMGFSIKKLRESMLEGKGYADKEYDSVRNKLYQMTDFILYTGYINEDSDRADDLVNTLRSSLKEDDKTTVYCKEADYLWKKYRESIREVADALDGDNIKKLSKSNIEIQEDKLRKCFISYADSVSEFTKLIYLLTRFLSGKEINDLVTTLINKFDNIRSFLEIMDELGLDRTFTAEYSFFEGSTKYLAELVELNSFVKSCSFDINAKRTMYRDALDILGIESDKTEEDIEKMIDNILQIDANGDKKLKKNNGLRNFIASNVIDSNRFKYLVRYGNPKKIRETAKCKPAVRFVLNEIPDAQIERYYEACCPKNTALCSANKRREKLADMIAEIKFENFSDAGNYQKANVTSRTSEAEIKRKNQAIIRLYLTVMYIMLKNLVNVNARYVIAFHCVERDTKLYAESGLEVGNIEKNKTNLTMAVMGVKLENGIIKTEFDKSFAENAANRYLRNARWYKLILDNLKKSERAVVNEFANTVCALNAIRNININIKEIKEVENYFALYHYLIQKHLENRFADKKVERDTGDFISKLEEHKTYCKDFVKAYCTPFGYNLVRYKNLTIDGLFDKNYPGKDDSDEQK
Test: crRNA (strand 1, pre-loaded); Mg2+; 40 mM Tris-HCl pH 7.5, 150 mM NaCl, 6 mM MgCl2, 1 mM DTT, 0.1% Tween-20, 0.2 mg/ml BSA; 25 C; 10 min per concentration, then washed
Details: tags: His6-TwinStrep-SUMO cleaved; N-terminal SNAP kept (SNAP-Surface 488); label: 3' end held by stalled T7 RNA polymerase
Measurement name: pKd
Give bare numbers, as −log10 of the molar value.

Here are 2 binders. What values of pKd were reported for them?
1. target 3 insG 3' of 7,insA 3' of 7 (mixed) RNA 1: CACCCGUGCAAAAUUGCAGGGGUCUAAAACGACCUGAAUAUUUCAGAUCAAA RNA 2: GGGAAUGGAUCCACAUCUACGAAUUCGUUUUUGAUCUGAAAUAUUGACAGGUCUGCAGAUCGGAAGAGCACACGU
2. target 1 insC 3' of 11,insU 3' of 7 (mixed) RNA 1: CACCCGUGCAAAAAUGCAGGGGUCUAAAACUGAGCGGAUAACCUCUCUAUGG RNA 2: GGGAAUGGAUCCACAUCUACGAAUUCGUACCAUAGAGAGGUCUAUCUCGCUCACCGAGAUCGGAAGAGCACACGU

A:
1: 7.40; 2: 7.41
